- target.of.assay: human B7-H3 (human) (UniProt Q5ZPR3)
- assay.procedure: flow cytometry (FACS) on CHO-K1 cells expressing human B7-H3; goat anti-human IgG (H+L) secondary
measurement.kind: EC50 (nM)
Give bare numbers, in nM.

Answered examples (2):
binder="12C9F1B5-VH2.1-VL2 (antibody, human IgG1, kappa, V domains shown) VH: QVQLVQSGAEVKKPGASVKVSCKASGFTNYGMNWVRQAPGQGLEWMGWINPYSGVPTYADDFKGRVTMTRDTSISTAYMELSRLRSDDTAVYYCARDDGFHYTMDYWGQGTLVTVSS VL: DIVMTQSPLSLPVTPGEPASISCRSSQNLVHSNGITYLHWYLQKPGQSPQLLIYKVSNRFSGVPDRFSGSGSGTDFTLKISRVEAEDVGVYYCSQSTLVPWTFGQGTKVEIKR" reported_value=0.153
binder="12C9F1B5-VH4-VL2 (antibody, human IgG1, kappa, V domains shown) VH: QVQLVQSGAEVKKPGASVKVSCKASGFTNYGMNWVRQAPGQRLEWMGWINPYSGVPTYADDFKGRVTITRDTSASTAYMELSSLRSEDTAVYYCARDDGFHYTMDYWGQGTLVTVSS VL: DIVMTQSPLSLPVTPGEPASISCRSSQNLVHSNGITYLHWYLQKPGQSPQLLIYKVSNRFSGVPDRFSGSGSGTDFTLKISRVEAEDVGVYYCSQSTLVPWTFGQGTKVEIKR" reported_value=0.339

# input for lookup
Q) Give the measured EC50 for 47F3F10B4-VH2-VL4 (antibody, human IgG1, kappa, V domains shown) VH: QVQLVQSGAEVKKPGASVKVSCKASGYTFTDHYMHWVRQAPGQGLEWMGYIFPNNGVSGYNQNFKDRVTMTRDTSTSTVYMELSSLRSEDTAVYYCARRQLGLGTMDYWGQGTLVTVSS VL: DIQMTQSPSSLSASVGDRVTITCRASKSVSTSGYNYMHWYQQKPGKAPKLLIYLASNLESGVPSRFSGSGSGTDFTLTISSLQPEDFATYYCQHSKELPWTFGQGTKVEIKR
A) 0.767
